Target: full-length recombinant human Nek7 (Homo sapiens)
Construct: full-length recombinant human Nek7; GST (N)
Test: NEK7 Enzymatic Assay
Details: radiometric [32P]-ATP kinase assay, casein substrate 20 μM, Nek7 70 nM, 2 hours room temperature
From the text: […]
pIC50: −log10 of the molar value.
Catalogue of pIC50 readings, one per entry.

Study these solved cases before continuing.
[
  {
    "compound": "CN1CCCC(n2cc(-c3ccc4c(c3F)CCN4C(=O)Cc3cc(C(F)(F)F)ccc3F)c3c(N)ncnc32)C1 (centres unmarked)",
    "pIC50": "> 6.82"
  },
  {
    "compound": "Nc1ncnc2c1c(-c1ccc3c(c1F)CCN3C(=O)Cc1cc(C(F)(F)F)ccc1F)cn2CCC(=O)O",
    "pIC50": "> 6.82"
  },
  {
    "compound": "COCCn1cc(-c2ccc3c(c2F)CCN3C(=O)Cc2cc(C(F)(F)F)ccc2F)c2c(N)ncnc21",
    "pIC50": "> 6.82"
  },
  {
    "compound": "CC(C)n1cc(-c2ccc3c(c2F)CCN3C(=O)Cc2ccc(F)c(C(F)(F)F)c2)c2c(N)ncnc21",
    "pIC50": "6.52 to 6.82"
  }
]

Continue with the next compound.
Q: Look at this compound and give its reported pIC50. CN1CCN(Cc2ccc(C(F)(F)F)cc2CC(=O)N2CCc3c2ccc(-c2cn(C4CC4)c4ncnc(N)c24)c3F)CC1
Result: < 5.82

* * *

Molecular target: full-length recombinant human Nek7 (Homo sapiens, UniProt Q8TDX7)
Construct: full-length recombinant human Nek7; GST (N); purchased SignalChem N09-10G; host or cells: Sf9 insect cells (baculovirus)
Sequence (Q8TDX7 whole entry): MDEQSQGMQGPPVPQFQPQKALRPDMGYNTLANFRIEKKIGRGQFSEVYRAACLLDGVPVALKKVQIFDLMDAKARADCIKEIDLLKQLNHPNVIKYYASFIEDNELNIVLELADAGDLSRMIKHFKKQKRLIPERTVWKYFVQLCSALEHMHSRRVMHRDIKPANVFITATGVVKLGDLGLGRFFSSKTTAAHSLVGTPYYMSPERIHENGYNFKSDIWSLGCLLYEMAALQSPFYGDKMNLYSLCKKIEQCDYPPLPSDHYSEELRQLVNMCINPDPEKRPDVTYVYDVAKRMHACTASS
Experiment: NEK7 Enzymatic Assay
Type: biochemical
Details: radiometric [32P]-ATP kinase assay, casein substrate 20 μM, Nek7 70 nM, 2 hours room temperature
pIC50: −log10 of the molar value.
measuredMetric: pIC50

Study these solved cases before continuing.
[
  {
    "molecule": "CN1CCN(Cc2cc(CC(=O)N3CCc4c3ccc(-c3cn(C5CC5)c5ncnc(N)c35)c4F)cc(C(F)(F)F)c2)CC1",
    "pIC50": "< 5.82"
  },
  {
    "molecule": "CN1CCC(n2cc(-c3ccc4c(c3F)CCN4C(=O)Cc3cc(C(F)(F)F)ccc3F)c3c(N)ncnc32)CC1",
    "pIC50": "> 6.82"
  },
  {
    "molecule": "Nc1ncnc2c1c(-c1ccc3c(c1F)CCN3C(=O)Cc1cccc(C(F)(F)F)n1)cn2C1CC1",
    "pIC50": "> 6.82"
  },
  {
    "molecule": "Nc1ncnc2c1c(-c1ccc3c(c1F)CCN3C(=O)Cc1cc(C(F)(F)F)ccc1F)cn2CCO",
    "pIC50": "> 6.82"
  },
  {
    "molecule": "CC(C)n1nc(-c2ccc3c(c2F)CCN3C(=O)Cc2ccc(F)cc2)c2c(N)ncnc21",
    "pIC50": "< 5.82"
  },
  {
    "molecule": "CN1CC(n2cc(-c3ccc4c(c3F)CCN4C(=O)Cc3cc(C(F)(F)F)ccc3F)c3c(N)ncnc32)C1",
    "pIC50": "> 6.82"
  },
  {
    "molecule": "Nc1ncnc2[nH]cc(-c3ccc4c(c3F)CCN4C(=O)Cc3cc(C(F)(F)F)ccc3F)c12",
    "pIC50": "> 6.82"
  },
  {
    "molecule": "CN1CCN(Cc2ccc(CC(=O)N3CCc4c3ccc(-c3cn(C5CC5)c5ncnc(N)c35)c4F)cc2C(F)(F)F)CC1",
    "pIC50": "6.30 to 6.52"
  }
]

Q: Look at this molecule and give its reported pIC50. CC(C)(O)Cn1cc(-c2ccc3c(c2F)CCN3C(=O)Cc2cc(C(F)(F)F)ccc2F)c2c(N)ncnc21
Result: > 6.82

Q: Look at this molecule and give its reported pIC50. Cc1cccc(CC(=O)N2CCc3c2ccc(-c2cn(C4CC4)c4ncnc(N)c24)c3F)n1
Result: > 6.82

Q: Look at this molecule and give its reported pIC50. Nc1ncnc2c1c(-c1ccc3c(c1F)CCN3C(=O)Cc1cc(C(F)(F)F)ccc1F)cn2C1CC(O)C1 (stereo not drawn)
Result: > 6.82

Origin of the recorded values: patent US20240382488A1
